Where do these numbers come from? They come from patent US20190248900A1.

- experimental.target: T1, antigen PD1 (coated, construct not stated) (UniProt Q15116 25-170, limits assumed)
- T1 construct: also called PD1 antigen; PDCD1
- T1 sequence (Q15116 25-170 limits assumed): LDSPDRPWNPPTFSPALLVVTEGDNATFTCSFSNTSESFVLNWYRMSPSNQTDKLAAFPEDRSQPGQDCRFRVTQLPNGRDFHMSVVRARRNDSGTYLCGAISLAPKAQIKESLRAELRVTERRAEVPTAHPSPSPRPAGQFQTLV
- method.summary: scFv-phage ELISA
quantity: OD490
Lab note: jot down the number only; don't add units.

binder: PD1-45F1 (antibody, V domains shown, scFv-phage in the screening ELISA; later whole IgG) VH: QVQLVQSGAEVKKPGASVKLSCKASGYTFNSYYVHWVRQAPGQGLEWMGIINPSDGSATYAQKFQGRVTMTSDTSTSSVYMELSSLRSEDTAVYYCARDGNYYDSRGYYYDTFDMWGQGTLITVSS VL: SYELTQDPAVSVALGQTVRITCQGDSLRTYYASWYQQKPGQAPILVIYGKNNRPSGIPDRFSGSSSGNTASLTITAAQAEDEADYYCNSRDSSGKSLVFGGGTKLTVL
OD490: 4

binder: PD1-45D6 (antibody, V domains shown, scFv-phage in the screening ELISA; whole IgG in the other assays) VH: QVQLVESGGGVVQPGRSLRLSCAASGFTFSSYAMHWVRQVPGKGLEWVAVISYDGNDKYYADSVKGRFTISRDNSKNTLYLQMNSLRAEDTAVYYCVPTTFEYWGQGSQVTVSS VL: DIVMTQTPLSLPVTPGEAASISCRSSQSLLDSDDGKTYLDWYLQKPGQSPQLLIYTLSYRASGVPDRFSGSGSGTEFNLRISRVEAEDVGIYYCMQRVEFPFTFGQGTKLDIK
OD490: 3.8

Query (binder): PD1-41C9 (antibody, V domains shown, scFv-phage in the screening ELISA; whole IgG in the other assays) VH: QMQLVESGGGVVQPGRSLRLSCAASGFTFSSYAMHWVRQAPGKGLEWVAVISYDGSNKYYADSVKGRFTISRDNSKNTLYLQMNRLRSEDTAVYYCTTTTFDSWGQGTLITVSS VL: DIVMTQTPLSLPVTPGEAASISCRSSQSLLDSEDGNTYLDWYLQKPGQSPQLLIYTLSHRASGVPDRFSGSGSGTDFTLKISRVAAEDVGLYYCLQRMGFPYTFGQGTKLDIK ; field requested: OD490
3.2
